System: cucumber downy mildew
Assay: Activity in vivo for inhibiting cucumber downy mildew (potting method, greenhouse)
Conditions: 20 mg/L; Table 1
observation-type: Control effect

compound	experimental-result
COC(CC(=O)N1CCC(c2nc(C3=NOC(c4c(F)cccc4F)C3)cs2)CC1)OC (centres unmarked)	A (90%≤A≤100%)
CO/N=C(/C(=O)N1CCC(c2nc(C3=NOC(c4c(F)cccc4F)C3)cs2)CC1)c1cc(C)ccc1C (centres unmarked)	A (90%≤A≤100%)
CCOC(CC(=O)N1CCC(c2nc(C3=NOC(c4c(F)cccc4F)C3)cs2)CC1)OCC (centres unmarked)	A (90%≤A≤100%)
CO/N=C(/C(=O)N1CCC(c2nc(C3=NOC(c4c(F)cccc4F)C3)cs2)CC1)c1ccccc1C (centres unmarked)	A (90%≤A≤100%)
CCCCC(C(=O)N1CCC(c2nc(C3=NOC(c4c(F)cccc4F)C3)cs2)CC1)C(OC)OC (centres unmarked)	A (90%≤A≤100%)
CC/C(=N\OC)C(=O)N1CCC(c2nc(C3=NOC(c4c(F)cccc4F)C3)cs2)CC1 (centres unmarked)	A (90%≤A≤100%)
CCO/C=C/C(=O)N1CCC(c2nc(C3=NOC(c4c(F)cccc4F)C3)cs2)CC1 (centres unmarked)	A (90%≤A≤100%)
CO/C=C(\F)C(=O)N1CCC(c2nc(C3=NOC(c4c(F)cccc4F)C3)cs2)CC1 (centres unmarked)	A (90%≤A≤100%)
CO/N=C(/C(=O)N1CCC(c2nc(C3=NOC(c4c(F)cccc4F)C3)cs2)CC1)c1ccccc1 (centres unmarked)	D (45%≤D<60%)
COC(OC)C(C(=O)N1CCC(c2nc(C3=NOC(c4c(F)cccc4F)C3)cs2)CC1)c1ccccc1 (centres unmarked)	D (45%≤D<60%)
CCCOC(CC(=O)N1CCC(c2nc(C3=NOC(c4c(F)cccc4F)C3)cs2)CC1)OCC (centres unmarked)	A (90%≤A≤100%)
CCC/C(=C\OC)C(=O)N1CCC(c2nc(C3=NOC(c4c(F)cccc4F)C3)cs2)CC1 (centres unmarked)	A (90%≤A≤100%)
CC1COC(C)(CC(=O)N2CCC(c3nc(C4=NOC(c5c(F)cccc5F)C4)cs3)CC2)O1 (centres unmarked)	A (90%≤A≤100%)

* * *

Test system: cucumber downy mildew
Assay: Activity in vivo for inhibiting cucumber downy mildew (potting method, greenhouse)
Details: 20 mg/L; Table 1

compound	Control effect
CO/C=C/C(=O)N1CCC(c2nc(C3=NOC(c4c(F)cccc4F)C3)cs2)CC1 (centres unmarked)	A (90%≤A≤100%)
C=CC(=O)N1CCC(c2nc(C3=NOC(c4c(F)cccc4F)C3)cs2)CC1 (centres unmarked)	B (75%≤B<90%)
CO/N=C(\C)C(=O)N1CCC(c2nc(C3=NOC(c4c(F)cccc4F)C3)cs2)CC1 (centres unmarked)	B (75%≤B<90%)
CO/C=C(\Br)C(=O)N1CCC(c2nc(C3=NOC(c4c(F)cccc4F)C3)cs2)CC1 (centres unmarked)	A (90%≤A≤100%)
CO/C=C(\C)C(=O)N1CCC(c2nc(C3=NOC(c4c(F)cccc4F)C3)cs2)CC1 (centres unmarked)	A (90%≤A≤100%)
O=C(CC1OCCCO1)N1CCC(c2nc(C3=NOC(c4c(F)cccc4F)C3)cs2)CC1 (centres unmarked)	A (90%≤A≤100%)
CO/C=C(\Cl)C(=O)N1CCC(c2nc(C3=NOC(c4c(F)cccc4F)C3)cs2)CC1 (centres unmarked)	A (90%≤A≤100%)
O=C(CC1OCCCCO1)N1CCC(c2nc(C3=NOC(c4c(F)cccc4F)C3)cs2)CC1 (centres unmarked)	C (60%≤C<75%)
CCOC(CC(=O)N1CCC(c2nc(C3=NOC(c4c(F)cccc4F)C3)cs2)CC1)OC (centres unmarked)	A (90%≤A≤100%)
CO/C=C(\C#N)C(=O)N1CCC(c2nc(C3=NOC(c4c(F)cccc4F)C3)cs2)CC1 (centres unmarked)	B (75%≤B<90%)
CO/N=C/C(=O)N1CCC(c2nc(C3=NOC(c4c(F)cccc4F)C3)cs2)CC1 (centres unmarked)	A (90%≤A≤100%)
CO/N=C(/C(=O)N1CCC(c2nc(C3=NOC(c4c(F)cccc4F)C3)cs2)CC1)c1cccc(C)c1 (centres unmarked)	D (45%≤D<60%)
CCO/N=C(\C#N)C(=O)N1CCC(c2nc(C3=NOC(c4c(F)cccc4F)C3)cs2)CC1 (centres unmarked)	A (90%≤A≤100%)
CO/N=C(/C(=O)N1CCC(c2nc(C3=NOC(c4c(F)cccc4F)C3)cs2)CC1)c1ccc(C)cc1C (centres unmarked)	D (45%≤D<60%)
CO/C=C(/C(=O)N1CCC(c2nc(C3=NOC(c4c(F)cccc4F)C3)cs2)CC1)c1cc(Cl)ccc1Cl (centres unmarked)	C (60%≤C<75%)
CCO/N=C/C(=O)N1CCC(c2nc(C3=NOC(c4c(F)cccc4F)C3)cs2)CC1 (centres unmarked)	A (90%≤A≤100%)
O=C(CC1OCCO1)N1CCC(c2nc(C3=NOC(c4c(F)cccc4F)C3)cs2)CC1 (centres unmarked)	A (90%≤A≤100%)
CCO/C(C)=C/C(=O)N1CCC(c2nc(C3=NOC(c4c(F)cccc4F)C3)cs2)CC1 (centres unmarked)	A (90%≤A≤100%)
CC1(CC(=O)N2CCC(c3nc(C4=NOC(c5c(F)cccc5F)C4)cs3)CC2)OCCO1 (centres unmarked)	A (90%≤A≤100%)
CO/C=C(/C(=O)N1CCC(c2nc(C3=NOC(c4c(F)cccc4F)C3)cs2)CC1)c1cc(C)ccc1C (centres unmarked)	A (90%≤A≤100%)
CCO/N=C(/C(=O)N1CCC(c2nc(C3=NOC(c4c(F)cccc4F)C3)cs2)CC1)c1cc(C)ccc1C (centres unmarked)	C (60%≤C<75%)
CO/C=C(\I)C(=O)N1CCC(c2nc(C3=NOC(c4c(F)cccc4F)C3)cs2)CC1 (centres unmarked)	B (75%≤B<90%)
CO/C=C(/C(=O)N1CCC(c2nc(C3=NOC(c4c(F)cccc4F)C3)cs2)CC1)c1ccc(C)cc1 (centres unmarked)	A (90%≤A≤100%)
COC(CC(=O)N1CCC(c2nc(C3=NOC(c4c(F)cccc4F)C3)cs2)CC1)OCC(F)(F)F (centres unmarked)	A (90%≤A≤100%)
CO/C=C(/C(=O)N1CCC(c2nc(C3=NOC(c4c(F)cccc4F)C3)cs2)CC1)C(C)C (centres unmarked)	A (90%≤A≤100%)
CO/C=C(/C(=O)N1CCC(c2nc(C3=NOC(c4c(F)cccc4F)C3)cs2)CC1)c1ccccc1C (centres unmarked)	C (60%≤C<75%)
CC/C(=C\OC)C(=O)N1CCC(c2nc(C3=NOC(c4c(F)cccc4F)C3)cs2)CC1 (centres unmarked)	A (90%≤A≤100%)
CCCC(C(=O)N1CCC(c2nc(C3=NOC(c4c(F)cccc4F)C3)cs2)CC1)C(OC)OC (centres unmarked)	A (90%≤A≤100%)
CCOC(CC(=O)N1CCC(c2nc(C3=NOC(c4c(F)cccc4F)C3)cs2)CC1)OCC(F)(F)F (centres unmarked)	A (90%≤A≤100%)
COC(OC)C(C)C(=O)N1CCC(c2nc(C3=NOC(c4c(F)cccc4F)C3)cs2)CC1 (centres unmarked)	C (60%≤C<75%)
CCOC(CC(=O)N1CCC(c2nc(C3=NOC(c4c(F)cccc4F)C3)cs2)CC1)OCc1ccccc1 (centres unmarked)	A (90%≤A≤100%)
CCC(C(=O)N1CCC(c2nc(C3=NOC(c4c(F)cccc4F)C3)cs2)CC1)C(OC)OC (centres unmarked)	B (75%≤B<90%)
